experiment_summary: basal MM1S mitochondrial membrane potential changes, profiling panel, cell-based, JC-1 fluorescence, 24 h, 100 nL compound (AID 1170); further: test concentration not given here
measurement_setup: higher = more signal
# if value of z-score reaches 0.09, tag Y; if it stays below, tag N

# molecule, label_class
records = [
    ("CCCCCN1CC=CC23O[C@@H]4/C=C\\CCCOC(=O)C4[C@H]2C(=O)N(CCO)[C@@H]3C1=O (stereo partly specified)", "N"),
    ("CCOC(=O)C[C@H]1[C@H](OC(=O)c2ccc(-c3ccccc3)cc2)[C@@H](NC(=O)c2ccc(-c3ccccc3)cc2)c2cc(OCCCO)ccc2N1C(=O)c1ccccc1", "N"),
    ("CC(C)[Si]1(C(C)C)OCc2cc(-c3ccc(-c4ccc(Cl)c(Cl)c4)o3)nc(-c3ccc(Oc4ccccc4)cc3)c21", "N"),
    ("COC(=O)[C@H](Cc1ccccc1)N1CC(C)(OC)O[C@@H](Cc2ccccc2)[C@H]1/C=C/C1CC1 (stereo partly specified)", "N"),
    ("C=CCNC(=O)[C@H]1[C@@H]2C(=O)O[C@@H](c3ccccc3)[C@@H](c3ccccc3)N2[C@@H](c2ccc(O)cc2)[C@]12C(=O)Nc1ccc(C#CCC(C(=O)OC)C(=O)OC)cc12", "Y"),
    ("CC(C)C[C@@H]1NC(=O)[C@H]2C[C@@H](C(=O)O)[C@@H](c3cccc(OCCO)c3)N2C1=O", "N"),
    ("O=C1OC[C@@H](c2ccccc2)n2cc(/C=C/c3ccccc3)cc21", "N"),
    ("C[N+](C)(C)CCCC[C@@H]1NC(=O)[C@H]2C[C@@H](C(=O)NCCCCCN)[C@@H](c3ccc(O)cc3)N2C1=O", "N"),
    ("CC(CO)N1C(=O)[C@@H]2[C@H]3C(=O)OCC=C[C@H]3OC23C=CCN(c2ccc4ccccc4c2)C(=O)[C@@H]13 (stereo partly specified)", "Y"),
    ("COC(=O)[C@@]1(Cc2ccc(F)cc2)[C@H]2c3cc(C(=O)N(C)C)n(CCF)c3C[C@H]2CN1C(=O)c1ccccc1", "Y"),
    ("C[C@]1(C(=O)O)c2ccccc2C(=O)N(Cc2cc(C(F)(F)F)cc(C(F)(F)F)c2)[C@H]1c1ccc(CO)cc1", "N"),
    ("COc1cc2c(cc1O)C(C)N(Cc1sc3ccccc3c1Cl)CC2 (stereo unspecified)", "N"),
    ("CCCCN1CC=CC23O[C@@H]4C=CCCOC(=O)C4[C@H]2C(=O)N(CCO)[C@@H]3C1=O (stereo partly specified)", "Y"),
    ("N#Cc1ccc(NN2C(C(O)c3ccc(B(O)O)cc3)C=CC3CN(c4ccccc4)C(=O)C32)cc1 (stereo unspecified)", "N"),
    ("COCCCNC(=O)[C@@]1(Cc2ccccc2I)c2ccccc2C(=O)N(Cc2ccccc2OC)[C@H]1c1ccc(CO)cc1", "N"),
    ("CC(=O)NCCCC[C@@H]1NC(=O)[C@H]2C[C@@H](C(=O)NCCCCCN)[C@@H](c3ccc(O)cc3)N2C1=O", "Y"),
]

----------
subject_of_test: Carbonic anhydrase 2 (Homo sapiens)
experiment_summary: CAII small-molecule binders, profiling panel, biochemical, small-molecule microarray, Alexa647-labelled CAII (AID 1122)
measurement_setup: CAII-A647 binding fluorescence, higher = more signal

# structure_as_smiles, composite z-score
measured = [
    ("CCOC(=O)C1=CC[C@@H](c2ccccc2)N(S(=O)(=O)c2ccc(C)cc2)[C@@H]1C#N", 0.518),
    ("COC(=O)[C@@]1(Cc2ccc(F)cc2)[C@H]2c3cc(C(=O)N(C)C)n(Cc4ccc(C(F)(F)F)nc4)c3C[C@H]2CN1C(=O)c1ccccc1", 0.726),
    ("C=C[C@@H](CO)NS(=O)(=O)c1ccc(Br)cc1", -0.359),
    ("Cc1ccc(S[C@]2(C(=O)NC3CC3)CC(=O)N(C3Cc4ccccc4C3)[C@@H]2c2ccc(CO)cc2I)cc1", 0.535),
]

----------
experiment_summary: basal RPMI8226 viability, no added stimulus, profiling panel, cell-based, calcein-AM fluorescence, 48 h, PK04 Diversity Set (AID 1166);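 further: cells grown under basal conditions without added stimulus; test concentration not given here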
measurement_setup: RPMI8226 myeloma viability, higher = more signal
# note: exactly -0.2 is not below, so it is Not met; use Met for z-score strictly under it

# compound, label_class
measured = [
    ("O=C1C2C=CC(C(O)C(c3ccccc3)c3ccccc3)N(Nc3ccccc3F)C2C(=O)N1c1ccccc1 (stereo unspecified)", "Not met"),
    ("COCCCNC(=O)[C@@]1(CCC(=O)OC(C)(C)C)N=C(c2ccc(OCCCO)cc2)O[C@H]1c1ccccc1", "Not met"),
    ("CC(C)[Si](C#Cc1ccccc1)(O[C@H](c1ccccc1)c1cn(Cc2ccccc2)nn1)C(C)C", "Met"),
    ("CC(C)(C)OC(=O)CC[C@@]1(C(N)=O)N=C(c2ccc(OCCCO)cc2)O[C@@H]1c1ccccc1CN=[N+]=[N-]", "Not met"),
    ("C=C(COC)/C(=C/C[C@@H](OC(=O)c1ccncc1)c1ccccc1OCCO)c1cnc2ccccc2c1", "Met"),
    ("O=C1O[C@H](c2ccccc2)[C@H](c2ccccc2)N2[C@H]1[C@@H](C(=O)N1CCN(c3ncccn3)CC1)[C@]1(C(=O)Nc3ccc(C#CC4(O)CCCCCC4)cc31)[C@H]2c1ccc(O)cc1", "Not met"),
    ("O=C1c2ccccc2[C@](Cc2ccccc2I)(C(=O)NCCN2CCOCC2)[C@H](c2ccc(CO)cc2)N1Cc1ccccc1C(F)(F)F", "Met"),
    ("CCCCC(=C=CC[C@H](O)c1ccccc1OCCO)CCO", "Met"),
    ("C=C(CCCC)/C(=C/C[C@@H](OC(C)=O)c1cccc(OCCO)c1)c1cc(C(=O)OC)ccc1OC", "Met"),
    ("COCCOC(=O)N1C(=O)[C@@]2(c3cc(C#CCNC(N)=O)ccc31)[C@H](c1ccccc1OCCO)N1[C@H](c3ccccc3)[C@H](c3ccccc3)OC(=O)[C@H]1[C@@H]2C(=O)N1CCCCCCC1", "Not met"),
    ("CC(C)c1ccc(NN2C(C(O)C(C)c3ccccc3)C=CC3C(=O)N(c4ccccc4)C(=O)C32)cc1 (stereo unspecified)", "Met"),
    ("COc1ccc(NN2C(C(O)c3ccccc3)C=CC3C(=O)N(C4CCCCC4)C(=O)C32)cc1 (stereo unspecified)", "Met"),
    ("NCCCCCCNC(=O)[C@@H]1C[C@@H]2C(=O)NCC(=O)N2[C@@H]1c1cccc(OCCO)c1", "Met"),
    ("C=C[C@H](OC)[C@@H](O)c1ccc(OC)c(O)c1", "Met"),
    ("COc1ccc(CCNC(=O)[C@@H]2c3ccccc3C(=O)N(C(C)C)[C@H]2c2ccc(CO)cc2)cc1", "Not met"),
]

----------
subject_of_test: Calmodulin-1 (Homo sapiens) (UniProt P0DP23)
experiment_summary: calcium-bound CALM1 binders on microarrays, profiling panel, artefact control for SMM control-protein annotation, biochemical, small-molecule microarray, Cy5-labelled CALM1, plus calcium (AID 1112);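 further: score merges spot fluorescence with signal to noise from triplicate slides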
measurement_setup: Cy5-CALM1 binding fluorescence, higher = more signal

# compound, composite z-score
measured = [
    ("CN1C(=O)C2C=CC(C(O)c3ccc(I)cc3)N(N(c3ccccc3)c3ccccc3)C2C1=O (stereo not drawn)", -0.0638),
    ("COC(=O)[C@@]1(Cc2ccc(F)cc2)[C@H]2c3cc(C(=O)N(C)C)n(Cc4cccc5ccccc45)c3C[C@H]2CN1C(=O)c1ccccc1", 0.189),
    ("O=C1c2ccccc2[C@@]2(Cc3ccccc3N(CC(F)(F)F)C2=O)[C@H](c2ccc(CO)cc2)N1Cc1ccccc1", 0.457),
    ("C=C(CCCC)C(=O)CC[C@@H](OC(C)=O)c1ccc(OCCO)cc1", -1.29),
    ("CCCCC(=C=CC[C@H](O)c1cccc(OCCO)c1)C[C@H](O)c1cc(Cl)cc(Cl)c1O", -0.484),
    ("COc1ccc([Si](C)(C)[C@@H]2[C@@H](CC(=O)N3Cc4ccccc4C[C@H]3CO)O[C@]3(C(=O)N(Cc4ccc(I)cc4)c4ccccc43)[C@H]2C)cc1", 0.426),
    ("COC(=O)[C@]1(Cc2ccccc2CN=[N+]=[N-])N=C(c2ccc(OCCCO)cc2)O[C@@H]1c1ccccc1N=[N+]=[N-]", -0.307),
    ("C=CCNC(=O)[C@H]1[C@@H]2C(=O)O[C@@H](c3ccccc3)[C@@H](c3ccccc3)N2[C@@H](c2ccc(O)cc2)[C@]12C(=O)Nc1ccc(C#CCC(C(=O)OC)C(=O)OC)cc12", -0.401),
]

----------
experiment_summary: anti-His antibody binders, primary screen, artefact control for SMM control protein annotation, biochemical, small-molecule microarray, 635 nm fluorescence (AID 1128);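 further: score merges feature fluorescence with signal-to-noise for each printed compound spot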
measurement_setup: anti-His Alexa647 antibody binding, higher = more signal
Quick rule: composite z-score of at least 2 means MET, below that means NOT MET.

# molecule, label_class
records = [
    ("C=C(COC)C(=O)CC[C@H](OC(C)=O)c1ccc(CO)o1", "NOT MET"),
    ("COc1ccc([Si](C)(C)[C@@H]2[C@@H](CC(=O)N3CCC[C@H]3CO)O[C@]3(C(=O)N(Cc4cccc(N5C(=O)c6cccc7cccc5c67)c4)c4ccccc43)[C@H]2C)cc1", "NOT MET"),
    ("COCCCNC(=O)[C@]1(Cc2ccccc2N=[N+]=[N-])N=C(c2ccc(OCCCO)cc2)O[C@@H]1c1ccccc1", "MET"),
    ("COC(=O)C1=CC(c2ccc(CO)cc2)=CC(C2CC2)N(Cc2cc3c(cc2Br)OCO3)C=C1C(=O)OC (stereo not drawn)", "MET"),
    ("COc1ccc(C(O)C2C=CC3C(=O)N(C)C(=O)C3N2Nc2ccccc2)cc1 (stereo not drawn)", "NOT MET"),
    ("C=CC[C@H](OC(=O)Nc1ccc(SC)cc1)c1ccc(O)c(F)c1", "NOT MET"),
    ("C[C@]1(C(=O)O)c2ccccc2C(=O)N(Cc2cc(C(F)(F)F)cc(C(F)(F)F)c2)[C@H]1c1ccc(CO)cc1", "NOT MET"),
    ("CC(CO)N1C(=O)[C@@H]2[C@H]3C(=O)OCC=C[C@H]3OC23C=CCN(c2ccc4ccccc4c2)C(=O)[C@@H]13 (stereo partly drawn)", "NOT MET"),
]
